Conditions: [M+Na-2H]-; instrument: DT; single field, calibrated with ESI Low Concentration Tuning Mix (Agilent)
Measured collision cross section (N2) by item
Answer in Å², number only, no unit symbol.

The cases that follow already have their collision cross section (N2) on record.
molecule	quantityUnit	observedResult
Nc1ncnc2c1ncn2C1OC(COP(=O)(O)OP(=O)(O)OCC2OC(O)C(O)C2O)C(O)C1O (configuration not stated) [ADENOSINE DIPHOSPHATE RIBOSE]	Å²	211.5
O=C(O)CCCCCCCC(=O)O [AZELATE]	Å²	141.9
NC(=O)c1ccc[n+]([C@@H]2O[C@H](COP(=O)(O)OP(=O)(O)OC[C@H]3O[C@@H](n4cnc5c(=O)nc[nH]c54)[C@H](O)[C@@H]3O)[C@@H](O)[C@H]2O)c1 [NICOTINAMIDE HYPOXANTHINE DINUCLEOTIDE]	Å²	217.2
Nc1ncnc2c1ncn2[C@@H]1O[C@H](COP(=O)(O)O)[C@@H](OP(=O)(O)O)[C@H]1O [ADENOSINE 3',5'-DIPHOSPHATE]	Å²	188.5
O=C(O)CCCCCCCCC(=O)O [SEBACATE]	Å²	146

Exercise: I am curious: what collision cross section (N2) value has been reported for O=C(O)C(CO)OP(=O)(O)O (configuration not stated) [2-PHOSPHOGLYCERATE] ?
Solution: 133.1

Exercise: CC(CCC(=O)O)C(=O)O (configuration not stated) [2-METHYLGLUTARATE] ?
Solution: 132.6
